settings: buffer; pH 7.4; 200.0 µM
EXPERIMENTAL ENDPOINT: solubility kinetic

Take a look at these entries with their results.
{"MOLECULE": "CCC[N+](CC#CCO)(CC#Cc1ccccc1)CCC.[Br-]", "solubility kinetic": "> 54.6 µg/mL"}
{"MOLECULE": "CC(C)(C)OC(=O)C(C)(C)Sc1nnc(N)s1", "solubility kinetic": "> 41.3 µg/mL"}
{"MOLECULE": "O=C(Nc1cc(S(=O)(=O)N2CCCC2)ccc1Cl)c1ccncc1", "solubility kinetic": "> 54.9 µg/mL"}
{"MOLECULE": "O=C1C(=O)c2ccccc2C(O)=C1c1cccc([N+](=O)[O-])c1", "solubility kinetic": "> 44.3 µg/mL"}
{"MOLECULE": "COCC(=O)Nc1ccc(N2CCOCC2)c(S(=O)(=O)Nc2ccc(OC)cc2)c1", "solubility kinetic": "> 65.3 µg/mL"}

Can you share its solubility kinetic? I mean this molecule: `O=C(/C=C/c1cccs1)N1CCCC1`
> 31.1 µg/mL

Try this molecule too: `O=C(NCc1ccco1)c1ccc(COc2ccccc2[N+](=O)[O-])o1`
> 51.3 µg/mL

Also, CC(O)Cn1c(N2CCCC2)nc2c1c(=O)n(C)c(=O)n2C (centres undefined) please.
> 46.1 µg/mL

Could you do the same for O=C(NCC(c1ccco1)N1CCCCC1)c1ccc([N+](=O)[O-])s1 (centres undefined) , please?
> 52.4 µg/mL

----------
conditions: buffer; pH 7.4; 200.0 µM
EXPERIMENTAL ENDPOINT: solubility kinetic

Below: 2 molecules and their reported solubility kinetic.
{"MOLECULE": "COc1c(-c2ccc([N+](=O)[O-])cc2[N+](=O)[O-])c(=O)n(C)c(=O)n1C", "solubility kinetic": "> 50.4 µg/mL"}
{"MOLECULE": "COc1ccc(CNc2ccc(Br)cc2)cc1", "solubility kinetic": "< 0.6 µg/mL"}

What value of solubility kinetic has been recorded for this entry: `O=C(CCC(=O)OCC(=O)c1cccc([N+](=O)[O-])c1)NC1CCCCC1`
> 54.4 µg/mL

Then what about the molecule `CCNc1ccc([N+](=O)[O-])cc1` ?
19.9 µg/mL

----------
settings: buffer; pH 7.4; 200.0 µM
EXPERIMENTAL ENDPOINT: solubility kinetic

For Cc1ccc(Nc2nnc(SC(C)C(=O)NCC3CCCO3)s2)cc1 (stereo not given) , what is its reported solubility kinetic?
> 56.8 µg/mL

Follow-up entry: `COc1ccccc1OCCCC(=O)NCc1ccco1`
> 43.4 µg/mL

What do we get for `COc1ccc(C(=O)N=c2sc3ccccc3n2C)cc1OC` ?
< 0.4 µg/mL

Follow-up entry: Cc1ccc(NC(=O)C(=O)NCC2CCCO2)cc1C (stereo not given)
> 41.5 µg/mL

Item: `O=C(O)c1cc(S(=O)(=O)N2CCCCC2)ccc1N1CCCC1`
> 50.8 µg/mL

# repeat for `CCCSc1ncccc1C(=O)O`
> 29.6 µg/mL

Try the compound `O=C(Nc1cccnc1)c1ccc([N+](=O)[O-])s1`
9.9 µg/mL

`CC(C)c1ccc(C(=O)Nc2cccnc2)cc1` , same question.
> 36 µg/mL

----------
settings: buffer; pH 7.4; 200.0 µM
EXPERIMENTAL ENDPOINT: solubility kinetic

Illustrative cases are given below, each with its answer.
{"COMPOUND": "Cc1ccc(CCN2CC(C(=O)NCCN(C)C)CC2=O)cc1 (configuration not stated)", "solubility kinetic": "> 47.6 µg/mL"}
{"COMPOUND": "O=C(c1ccccc1)c1cc2cc(Cl)ccc2[nH]1", "solubility kinetic": "< 0.5 µg/mL"}
{"COMPOUND": "CN(CC(=O)NCCc1ccc(S(N)(=O)=O)cc1)CC(=O)Nc1ccc(F)c(F)c1F", "solubility kinetic": "> 68.8 µg/mL"}
{"COMPOUND": "CC(C)C(=O)Nc1c2c(nn1-c1ccc(F)cc1)CS(=O)(=O)C2", "solubility kinetic": "> 50.6 µg/mL"}
{"COMPOUND": "CCOC(=O)NC(=O)CSc1ccc(C)cc1C", "solubility kinetic": "> 40.1 µg/mL"}
{"COMPOUND": "COc1cc(C(=O)NCCC(=O)NC(C)C)cc(OC)c1OC", "solubility kinetic": "> 48.7 µg/mL"}
{"COMPOUND": "CCOC(=O)/C=C1/N(C)c2ccccc2C1(C)C", "solubility kinetic": "< 0.5 µg/mL"}
{"COMPOUND": "O=C(O)c1ccccc1Nc1ccnc(C(F)(F)F)c1", "solubility kinetic": "> 42.3 µg/mL"}
{"COMPOUND": "COc1ccc2nc(C)cc(Nc3ccc(N4CCN(C)CC4)cc3)c2c1", "solubility kinetic": "> 54.4 µg/mL"}
{"COMPOUND": "Cc1nn(CC(=O)NCCc2ccccc2)c(=O)c2cccn12", "solubility kinetic": "> 46.6 µg/mL"}

Given the entry `CCc1ccccc1NC(=O)C1CCN(C(=O)c2cccs2)CC1` , report its measured solubility kinetic.
> 51.4 µg/mL

# repeat for `CN(Cc1ccccc1)C(=O)COC(=O)c1ccc[nH]c1=O`
> 45 µg/mL
